- measured on: Aldo-keto reductase family 1 member B1 (Bos taurus) (UniProt P16116)
- method description: In vitro inhibition of aldose reductase from the partially purified bovine lens at 10e-6 M concentration
measure: inhibition (%)

Worked examples, 3 molecules total:
{"columns": ["input smiles", "measured on", "inhibition [%]"],
 "data": [
  ["CSc1nc(C(C)(C)C)nc(OCC(=O)O)c1C#N", "Aldo-keto reductase family 1 member B1 (Bos taurus) (UniProt P16116)", 88],
  ["Cc1nc(N2CCC(Cc3ccccc3)CC2)c(C#N)c(=O)n1CC(=O)O", "Aldo-keto reductase family 1 member B1 (Bos taurus) (UniProt P16116)", 88],
  ["Cc1nc(NCc2cccnc2)c(C#N)c(=O)n1CC(=O)O", "Aldo-keto reductase family 1 member B1 (Bos taurus) (UniProt P16116)", 90]
]}

A = Cc1nc(NCc2ccccc2)c(C#N)c(=O)n1CC(=O)O
B = CSc1nc(C(C)(C)C)nc(OCC(=O)O)c1C(N)=O
**Query** Consider A and B . Which of these has its inhibition at a higher number? Indicate which entry you chose by stating its label.
**Result** A
(A: 90%, B: 42%)
